Numbers sourced from PubChem BioAssay AID1159580.

Below, each of the molecules is paired with its reported normalized growth value.
assay: chemical genetic growth profiling, strain panel (AID 1159580);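 further: tested at 20 µM; growth read once vehicle control cultures reached saturation at 30 °C; 1 = growth at the plate median or of vehicle wells; lower values mean less growth of the strain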; settings: S. cerevisiae deletion strains, growth OD, locus YNL233W, strain BNI4, active compounds read low
The whole screen tested about 5,500 compounds, of which about 2,000 (36%) were called active. About 18% were inconclusive and are not listed. Some of the results follow.

{"columns": ["molecule", "normalized growth"],
 "data": [
  ["CO[C@H]1C[C@H](O[C@H]2[C@H](C)[C@@H](OC3O[C@H](C)C[C@H](N(C)C)[C@H]3O)[C@@H](C)C[C@]3(CO3)C(=O)[C@H](C)[C@@H](O)[C@@H](C)[C@@H](C)OC(=O)[C@@H]2C)O[C@@H](C)[C@@H]1O (some centres not stated)", 1.02],
  ["CC(=O)O[C@@](C)(CCC=C(C)C)C1CC=C(C)CC1 (some centres not stated)", 1.04],
  ["CCN(CC)C(=S)SSC(=S)N(CC)CC", 0.0544],
  ["S=C=NCc1ccccc1", 0.054],
  ["CCc1nc(N)nc(N)c1-c1ccc(Cl)cc1", 0.991],
  ["NC(=O)c1ncn([C@@H]2O[C@H](CO)[C@@H](O)[C@H]2O)c1O", 0.99],
  ["COc1cc2c(cc1OC)C(=O)C(CC1CCN(Cc3ccccc3)CC1)C2 (configuration not stated)", 0.75],
  ["CCCCOc1ccc(OCCCN2CCOCC2)cc1", 0.767],
  ["O=[N+]([O-])O[C@H]1CO[C@H]2[C@@H]1OC[C@H]2O[N+](=O)[O-]", 1.01],
  ["CCCCOc1ccc(C(=O)CCN2CCCCC2)cc1", 0.167],
  ["C=C1CC[C@H](O)C/C1=C/C=C1\\CCC[C@]2(C)C([C@H](C)/C=C/[C@H](C)C(C)C)CC[C@@H]12 (some centres not stated)", 0.993],
  ["Cc1c(N(C)C)c(=O)n(-c2ccccc2)n1C", 0.986]
]}

---

experiment: chemical genetic growth profiling, strain panel (AID 1159580);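 further: tested at 20 µM; growth read once vehicle control cultures reached saturation at 30 °C; 1 = growth at the plate median or of vehicle wells; lower values mean less growth of the strain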; conditions: S. cerevisiae deletion strains, growth OD, locus YLR370C, strain arc18, active compounds read low
Screen size: about 5,500 compounds; about 2,000 (36%) were called active. Not shown: some 18% with an inconclusive outcome. The list shows a part of the results.
Threshold 1: normalized growth strictly smaller gives Met, otherwise Not met.

{"columns": ["compound", "category_label"],
 "data": [
  ["COc1ccc(C(=O)c2ccccc2O)c(O)c1", "Met"],
  ["CC(C)(C)CC(C)(C)c1ccc(OCCOCC[N+](C)(C)Cc2ccccc2)cc1", "Met"],
  ["O=C(O)C1CC([C@@H]2CCCCN2)CN2CCCCC12 (stereo partly specified)", "Met"],
  ["COc1ccc2cc1Oc1ccc(cc1)C[C@H]1c3cc(c(OC)cc3CCN1C)Oc1c(OC)c(OC)cc3c1[C@H](C2)N(C)CC3", "Met"],
  ["COc1cc(OC)c2c(c1)O[C@H](c1ccc(OC)c(OC)c1)[C@@H](O)C2", "Met"],
  ["Cc1cc(C(C)(C)CC(C)(C)C)ccc1OCCOCC[N+](C)(C)Cc1ccccc1", "Met"],
  ["Cc1cc(=O)c2c(O)c(C)c(O)cc2o1", "Not met"],
  ["CC1(C)C2CC[C@]3(C)C(C(=O)C=C4[C@@H]5C[C@@](C)(C(=O)O)CC[C@]5(C)CC[C@]43C)[C@@]2(C)CC[C@@H]1OC(=O)CCC(=O)O (stereo partly specified)", "Met"],
  ["C[CH2][Hg][S]c1ccccc1C(=O)O", "Met"],
  ["N#Cc1c(Cl)c(Cl)c(Cl)c(C#N)c1Cl", "Met"],
  ["NCC1CCCCC1CC(=O)O (stereo unspecified)", "Not met"],
  ["CCCCCCCCCCCCC[N+](C)(C)Cc1ccccc1", "Met"],
  ["CCCCCC(C)N (stereo unspecified)", "Not met"],
  ["CC1(C)C2CC[C@]3(C)C(C(=O)C=C4[C@@H]5C[C@@](C)(C(=O)O)CC[C@]5(C)CC[C@]43C)[C@@]2(C)CC[C@@H]1O (stereo partly specified)", "Not met"]
]}

---

test: chemical genetic growth profiling, strain panel (AID 1159580);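 further: tested at 20 µM; growth read once vehicle control cultures reached saturation at 30 °C; 1 = growth at the plate median or of vehicle wells; lower values mean less growth of the strain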; conditions: S. cerevisiae deletion strains, growth OD, locus YML032C, strain rad52, active compounds read low
About 2,000 (36%) of roughly 5,500 compounds were called active. Inconclusive results (about 18%) are left out. The list shows a part of the results.

{"columns": ["molecule", "normalized growth"],
 "data": [
  ["O=c1ccc2cc(O)c(O)cc2o1", 1],
  ["COc1ccc([C@@H]2CC(=O)c3c(O)cc(O)cc3O2)cc1O", 0.991],
  ["C[C@@H]1O[C@@H](O[C@H]2[C@@H](Oc3cc(O)c4c(c3)O[C@H](c3ccc(O)cc3)CC4=O)O[C@H](CO)[C@@H](O)[C@@H]2O)[C@H](O)[C@H](O)[C@H]1O", 0.996],
  ["CC(C)(C)CC(C)(C)c1ccc(OCCOCC[N+](C)(C)Cc2ccccc2)cc1", 0.99],
  ["C=CCc1ccc2c(c1)OCO2", 0.996],
  ["CC(C)=CCc1c(O)cc(C)oc1=O", 0.994],
  ["COc1ccc(C2CC(=O)c3ccc(OC)cc3O2)cc1 (stereo not drawn)", 0.889],
  ["COC(=O)C1[C@H]2C[C@H]3c4[nH]c5ccccc5c4CCN3C[C@@H]2CC[C@@H]1O (stereo partly drawn)", 1.03],
  ["Cc1cc(C(C)(C)CC(C)(C)C)ccc1OCCOCC[N+](C)(C)Cc1ccccc1", 0.0687],
  ["O=C1C[C@@H](c2ccc(O)cc2)Oc2cc(O)cc(O)c21", 1.01],
  ["C=CC(C)(C)c1c2c(c(O)c3c(=O)c4ccc(O)c(O)c4oc13)C=CC(C)(C)O2", 0.954],
  ["O=C1C[C@@H](c2ccccc2)Oc2cc(O)cc(O)c21", 0.864],
  ["O=C(O)c1cc(=O)c2cc(Cl)ccc2[nH]1", 1.02],
  ["CCC(C(=O)O)c1ccccc1 (stereo not drawn)", 0.997],
  ["O=C(O)c1cc(=O)c2ccc(Cl)cc2[nH]1", 0.996],
  ["CCCCOc1ccc(C(=O)CCN2CCCCC2)cc1", 0.748],
  ["CC(C)[N+](C)(CCOC(=O)C1c2ccccc2Oc2ccccc21)C(C)C", 1.01],
  ["O=C1CC(c2ccccc2)Oc2ccccc21 (stereo not drawn)", 0.949],
  ["CCc1nc(N)nc(N)c1-c1ccc(Cl)cc1", 0.952],
  ["C[N+](C)(C)CCOP(=O)([O-])OP(=O)(O)OC[C@H]1OC(n2ccc(N)nc2=O)[C@H](O)[C@@H]1O (stereo partly drawn)", 1.02],
  ["CC1(O)/C=C/C=C(\\CO)C2CC(C)(C)C2(O)CC1 (stereo not drawn)", 0.979],
  ["COC(=O)[C@H]1[C@H]2C[C@H]3c4[nH]c5ccccc5c4CCN3C[C@H]2CC[C@@H]1O", 0.998],
  ["O=c1ccc2ccccc2o1", 0.999]
]}

---

test: chemical genetic growth profiling, strain panel (AID 1159580);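 further: tested at 20 µM; growth read once vehicle control cultures reached saturation at 30 °C; 1 = growth at the plate median or of vehicle wells; lower values mean less growth of the strain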; conditions: S. cerevisiae deletion strains, growth OD, locus YDR335W, strain msn5
In all, about 5,500 compounds went through this assay and about 2,000 (36%) were called active. Inconclusive results (about 18%) are left out. Rule as the data show it: active = normalized growth mostly below about 0.91 (no sharp cut-off); inconclusive = no clear call, values can overlap the other calls; inactive = mostly above about 0.92. The list shows a part of the results.
Outcome codes: active, inactive

{"columns": ["compound", "category_label"],
 "data": [
  ["CC(=O)OCC(CCn1cnc2cnc(N)nc21)COC(C)=O", "inactive"],
  ["O=C(O)c1cc(=O)c2ccc(Cl)cc2[nH]1", "inactive"],
  ["C=C1CC[C@H](O)C/C1=C/C=C1\\CCC[C@]2(C)C([C@H](C)/C=C/[C@H](C)C(C)C)CC[C@@H]12 (stereo partly drawn)", "inactive"],
  ["S=C=NCc1ccccc1", "active"],
  ["COc1ccc2cc1Oc1ccc(cc1)C[C@H]1c3cc(c(OC)cc3CCN1C)Oc1c(OC)c(OC)cc3c1[C@H](C2)N(C)CC3", "inactive"],
  ["CC(C)CC1C(=O)N2CCC[C@H]2C2(O)O[C@](NC(=O)C3C=C4c5cccc6[nH]c(Br)c(c56)C[C@H]4N(C)C3)(C(C)C)C(=O)N12 (stereo partly drawn)", "inactive"],
  ["COc1ccc2cc1Oc1ccc(cc1)C[C@H]1c3c(cc4c(c3Oc3cc5c(cc3OC)CCN(C)[C@@H]5C2)OCO4)CCN1C", "inactive"],
  ["NC[C@@H]1O[C@H](O[C@@H]2[C@@H](CO)OC(O[C@@H]3[C@@H](O)[C@H](N)C[C@H](N)[C@H]3OC3O[C@H](CN)[C@@H](O)[C@H](O)[C@H]3N)[C@@H]2O)[C@H](N)[C@@H](O)[C@@H]1O (stereo partly drawn)", "inactive"]
]}
